The values you see were collected from patent US11382946B2.

molecular target: FPR2 (Homo sapiens, UniProt P25090); construct: expressed in transfected cells; host or cells: RBL cells overexpressing FPR2 (FPR2-RBL); test: FPR2 activation by intracellular calcium ion increase (Fura-2/AM) in FPR2-RBL cells; type: cell-based; settings: RBL cells overexpressing FPR2
Sequence (P25090 whole entry, species assumed): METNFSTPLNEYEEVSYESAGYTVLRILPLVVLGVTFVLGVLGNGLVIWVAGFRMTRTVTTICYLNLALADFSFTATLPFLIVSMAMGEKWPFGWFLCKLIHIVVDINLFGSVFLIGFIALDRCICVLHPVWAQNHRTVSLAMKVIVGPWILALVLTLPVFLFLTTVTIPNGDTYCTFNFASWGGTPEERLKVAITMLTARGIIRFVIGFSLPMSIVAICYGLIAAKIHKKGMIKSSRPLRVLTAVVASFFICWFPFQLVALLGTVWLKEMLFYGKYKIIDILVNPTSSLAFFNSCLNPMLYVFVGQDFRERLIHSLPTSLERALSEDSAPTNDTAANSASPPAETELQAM
Non-standard residues stand in square brackets, D forms with d. Residues, ends and D or L forms follow the SMILES beside them. *: point of attachment. 2Nal = N[C@@H](Cc1ccc2ccccc2c1)C(=O)O; Nle = CCCC[C@H](N)C(=O)O; Octanoyl = CCCCCCCC(=O)*
Collected EC50 values appear next to each entry.
# unit: nM | format: bare number

Before answering, review these 2 worked examples.
**Q:** Please give the measured EC50 for this compound: CCCC[C@H](NC(=O)[C@H](CCCNC(=N)N)NC(=O)[C@H](Cc1c[nH]c2ccccc12)NC(=O)[C@H](Cc1c[nH]c2ccccc12)NC(=O)[C@H](CCCNC(=N)N)NC(=O)[C@H](Cc1ccc2ccccc2c1)NC(C)=O)C(=O)N[C@@H](Cc1c[nH]c2ccccc12)C(=O)N[C@@H](Cc1c[nH]c2ccccc12)C(=O)N[C@@H](CCCNC(=N)N)C(=O)N[C@@H](Cc1c[nH]c2ccccc12)C(=O)N[C@H](CCSC)C(N)=O [Peptide V23_Ac, Ac-ZRWWR-Nle-WWRWm-NH2] (Ac-[2Nal]RWWR[Nle]WWRW[dM]-NH2)
**A:** 61.3

**Q:** For CCCC[C@H](NC(=O)[C@H](Cc1c[nH]c2ccccc12)NC(=O)[C@H](Cc1c[nH]c2ccccc12)NC(=O)[C@H](CCCNC(=N)N)NC(=O)[C@H](Cc1ccc2ccccc2c1)NC(C)=O)C(=O)N[C@@H](Cc1c[nH]c2ccccc12)C(=O)N[C@H](CCSC)C(N)=O [Peptide V20_Ac, Ac-ZRWW-Nle-Wm-NH2] (Ac-[2Nal]RWW[Nle]W[dM]-NH2) then?
**A:** 45.3

Further cases:
**Q:** Please give the measured EC50 for this compound: CCCCCCCC(=O)N[C@@H](CCCNC(=N)N)C(=O)N[C@@H](Cc1c[nH]c2ccccc12)C(=O)N[C@@H](CCCNC(=N)N)C(=O)N[C@@H](Cc1c[nH]c2ccccc12)C(=O)N[C@@H](Cc1ccc2ccccc2c1)C(=O)N[C@@H](Cc1c[nH]c2ccccc12)C(=O)N[C@H](CCSC)C(N)=O [Peptide V18, Oct-RWRWZWm-NH2] (Octanoyl-RWRW[2Nal]W[dM]-NH2)
**A:** 62.8

###

Target: FPR2 (Homo sapiens, UniProt P25090)
Assay: FPR2 activation by intracellular calcium ion increase (Fura-2/AM) in FPR2-RBL cells
Conditions: RBL cells overexpressing FPR2
Experimental: The present inventors observed a change in calcium ion permeability of the candidate peptides according to an embodiment of the present invention in order to determine whether they can activate the immunomodulatory function in a body or not. Particularly, intracellular concentration of calcium ions was measured to confirm that the peptide activates FPR2. […]
Non-standard residues stand in square brackets, D forms with d. Residues, ends and D or L forms follow the SMILES beside them. *: point of attachment. 2Nal = N[C@@H](Cc1ccc2ccccc2c1)C(=O)O; Nle = CCCC[C@H](N)C(=O)O; Octanoyl = CCCCCCCC(=O)*
Collected pEC50 values appear next to each entry.
Please note pEC50 is a logarithmic value: minus log10 of concentration in mol/L. Answer with that number alone.

**Q:** Please give the measured pEC50 for this compound: CCCCCCCC(=O)N[C@@H](CCCCN)C(=O)N[C@@H](Cc1c[nH]c2ccccc12)C(=O)N[C@@H](CCCCN)C(=O)N[C@@H](Cc1c[nH]c2ccccc12)C(=O)N[C@@H](CCCC)C(=O)N[C@@H](Cc1ccc(O)cc1)C(=O)N[C@H](CCSC)C(N)=O [Peptide V4, Oct-KWKW-Nle-Ym-NH2] (Octanoyl-KWKW[Nle]Y[dM]-NH2)
**A:** 7.19

In the following, a different compound is considered.
**Q:** Please give the measured pEC50 for this compound: CSCC[C@@H](NC(=O)[C@H](Cc1c[nH]c2ccccc12)NC(=O)[C@H](Cc1ccc2ccccc2c1)NC(=O)[C@H](Cc1c[nH]c2ccccc12)NC(=O)[C@H](CCCNC(=N)N)NC(=O)[C@H](Cc1c[nH]c2ccccc12)NC(=O)[C@@H](N)CCCNC(=N)N)C(N)=O [Peptide V18_0, RWRWZWm-NH2] (H-RWRW[2Nal]W[dM]-NH2)
**A:** 8.00
